Listed here are molecules together with their documented IC50.
subject-of-test: Steroid 17-alpha-hydroxylase/17,20 lyase (Homo sapiens, UniProt P05093)
Sequence (P05093 whole entry): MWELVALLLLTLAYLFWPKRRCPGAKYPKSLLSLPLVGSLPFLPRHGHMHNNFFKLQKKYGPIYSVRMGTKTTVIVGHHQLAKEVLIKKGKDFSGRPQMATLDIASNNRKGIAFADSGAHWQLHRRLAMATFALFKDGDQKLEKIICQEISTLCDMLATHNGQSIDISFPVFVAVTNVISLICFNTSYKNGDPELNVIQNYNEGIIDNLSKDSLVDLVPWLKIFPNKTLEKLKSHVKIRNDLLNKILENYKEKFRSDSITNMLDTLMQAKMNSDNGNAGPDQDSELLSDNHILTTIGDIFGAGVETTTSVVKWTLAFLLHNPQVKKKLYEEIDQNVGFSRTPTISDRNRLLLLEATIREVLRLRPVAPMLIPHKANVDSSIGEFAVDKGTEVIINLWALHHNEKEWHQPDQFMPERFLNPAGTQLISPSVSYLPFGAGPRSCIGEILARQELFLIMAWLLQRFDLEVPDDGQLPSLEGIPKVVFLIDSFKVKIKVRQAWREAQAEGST
test-name: Inhibition of CYP17 in human testicular microsomes using 17alpha-hydroxypregnenolone as substrate assessed as decrease in DHEA levels after 90 mins by ELISA
Parameters: species or system Testis
experimental-endpoint: IC50

1. C[C@]12CCNC(=O)C=C1C1CC1[C@@H]1[C@@H]2CC[C@]2(C)C(c3cncc(F)c3)=CC[C@@H]12 (stereo not given in full)    ≤ 11 nM
2. COc1cncc(C2=CC=C3[C@@H]4CCC5=CC(=O)N(C)CC[C@]5(C)[C@H]4CC[C@]23C)c1    ≤ 11 nM
3. C[C@]12CCNC(=O)C=C1CC[C@@H]1[C@@H]2CC[C@]2(C)C(n3cncn3)=CC[C@@H]12    ≤ 11 nM
4. C[C@]12CC[C@H]3[C@@H](CCC4=CC(=O)CC[C@@]43C)C1=CC=C2c1cncnc1    ≤ 11 nM
5. C[C@]12CCNC(=O)C=C1CC[C@@H]1[C@@H]2CC[C@]2(C)C(n3ccnc3)=CC[C@@H]12    ≤ 11 nM
6. C[C@]12CC[C@H](O)CC1=CC[C@@H]1[C@@H]2CC[C@]2(C)C(c3cccnc3)=CC[C@@H]12    ≤ 11 nM
7. CC(=O)N[C@@H]1CC[C@@]2(C)C(=CC[C@@H]3[C@@H]2CC[C@]2(C)C(c4cccnc4)=CC[C@@H]32)C1    ≤ 11 nM
8. COc1cncc(C2=CC[C@H]3[C@@H]4CC[C@H]5CCOCC[C@]5(C)[C@H]4CC[C@]23C)c1    ≤ 11 nM
9. CN1CC=C2CC[C@@H]3[C@H](CC[C@]4(C)C(c5cccnc5)=CC[C@@H]34)[C@@]2(C)CC1    ≤ 11 nM
10. C[C@]12CC[C@@H](NC(=O)C3CC3)CC1=CC[C@@H]1[C@@H]2CC[C@]2(C)C(n3ccnc3)=CC[C@@H]12    ≤ 11 nM
11. CC(=O)N[C@@H]1CC[C@@]2(C)C(=CC[C@@H]3[C@@H]2CC[C@]2(C)C(c4cncc(C(F)F)c4)=CC[C@@H]32)C1    ≤ 11 nM
12. C[C@]12CCCCC1C(=O)C[C@@H]1[C@@H]2CC[C@]2(C)C(n3ccnc3)=CC[C@@H]12 (stereo not given in full)    ≤ 11 nM
13. C[C@]12CCC(=O)C=C1C=C[C@@H]1[C@@H]2CC[C@]2(C)C(c3cncc(F)c3)=CC[C@@H]12    ≤ 11 nM
14. CN1CC[C@@]2(C)C(=CC1=O)CC[C@H]1C3=CC=C(c4cnccn4)[C@@]3(C)CC[C@@H]12    ≤ 11 nM
15. CC1C[C@H]2C3=CC=C(c4cccnc4)[C@@]3(C)CC[C@@H]2[C@@]2(C)CCC(=O)C=C12 (stereo not given in full)    ≤ 11 nM

* * *

subject-of-test: Steroid 17-alpha-hydroxylase/17,20 lyase (Homo sapiens)
test-name: Inhibition of CYP17 in human testicular microsomes using 17alpha-hydroxypregnenolone as substrate assessed as decrease in DHEA levels after 90 mins by ELISA
Design: species or system Testis
Listed here are compounds together with their documented IC50.
experimental-endpoint: IC50

1) CCc1cncc(C2=CC[C@H]3[C@@H]4CCN5C(=O)CCCC[C@]5(C)[C@H]4CC[C@]23C)c1    ≤ 11 nM
2) C[C@]12CC[C@H]3[C@@H](CC(F)C4(O)CC(=O)CC[C@]34C)[C@@H]1CC=C2c1cccnc1 (stereo not given in full)    ≤ 11 nM
3) CCC1C[C@H]2C3=CC=C(c4cccnc4)[C@@]3(C)CC[C@@H]2[C@@]2(C)CCC(=O)C=C12 (stereo not given in full)    ≤ 11 nM
4) C[C@]12CCC(F)(F)CC1CC[C@@H]1[C@@H]2CC[C@]2(C)C(c3cccnc3)=CC[C@@H]12 (stereo not given in full)    ≤ 11 nM
5) C[C@]12CC[C@H]3[C@@H](CC(F)[C@@]4(O)C[C@@H](O)CC[C@]34C)[C@@H]1CC=C2c1cccnc1 (stereo not given in full)    ≤ 11 nM
6) C[C@]12CCNC(=O)C=C1CC[C@@H]1[C@@H]2CC[C@]2(C)C(c3cncc(C(F)F)c3)=CC[C@@H]12    ≤ 11 nM
7) CN1CC[C@@]2(C)C(=CC1=O)CCC1[C@@H]2CC[C@]2(C)C(c3cccnc3)=CC[C@@H]12 (single isomer, unassigned)    ≤ 11 nM
8) Cc1cn(C2=CC[C@H]3[C@@H]4CCC5=CC(=O)NCC[C@]5(C)[C@H]4CC[C@]23C)cn1    ≤ 11 nM
9) CC1=C2CC[C@@H]3[C@H](CC[C@]4(C)C(c5cccnc5)=CC[C@@H]34)[C@@]2(C)CCC1O (stereo not given in full)    ≤ 11 nM
10) C[C@]12CC(O)CC1CC[C@@H]1[C@@H]2CC[C@]2(C)C(c3cccnc3)=CC[C@@H]12 (stereo not given in full)    ≤ 11 nM
